molecular target: hAPJ (Homo sapiens, UniProt P35414); assay: hAPJ Calcium Flux Assay; assay type: cell-based; conditions: Chem-5 APJ stable cells, FLIPR calcium flux stimulation; read-out: hAPJ Ca^2+ Flux EC50
Sequence (P35414 whole entry): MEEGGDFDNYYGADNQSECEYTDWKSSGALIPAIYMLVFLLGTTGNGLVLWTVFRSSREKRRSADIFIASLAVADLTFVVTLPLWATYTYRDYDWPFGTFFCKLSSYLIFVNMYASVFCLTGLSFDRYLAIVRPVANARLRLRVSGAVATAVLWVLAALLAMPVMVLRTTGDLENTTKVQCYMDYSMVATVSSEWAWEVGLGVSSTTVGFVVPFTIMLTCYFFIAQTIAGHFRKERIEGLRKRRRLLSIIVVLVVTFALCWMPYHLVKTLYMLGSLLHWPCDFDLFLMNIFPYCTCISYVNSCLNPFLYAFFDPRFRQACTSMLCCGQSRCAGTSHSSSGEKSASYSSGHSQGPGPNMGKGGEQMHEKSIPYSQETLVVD
Where a SMILES comes first, the peptide text is derived from it. [ ]: non-standard residue; d: D form. pGlu = O=C1CC[C@@H](C(=O)O)N1; dNle = CCCC[C@@H](N)C(=O)O; dNva = CCC[C@@H](N)C(=O)O
result.type: EC50 (nM)
Answer with a number only, understood to be in nM.

[
  {
    "molecule": "CCC[C@@H](NC(=O)[C@@H]1CCCN1C(=O)CNC(=O)[C@H](CCCCN)NC(=O)[C@H](Cc1c[nH]cn1)NC(=O)[C@@H](C)NC(=O)[C@H](CC(C)C)NC(=O)[C@H](CCCNC(=N)N)NC(=O)[C@@H]1CCCN1C(=O)[C@H](CCCNC(=N)N)NC(=O)[C@@H]1CCC(=O)N1)C(=O)N[C@H](C)C(=O)N[C@H](Cc1ccccc1)C(=O)O [Example 53, pE-R-P-R-L-a-H-K-G-P-nva-a-f-OH] ([pGlu]RPRL[dA]HKGP[dNva][dA][dF]-OH)",
    "result.type": "EC50",
    "measured": 8.7
  },
  {
    "molecule": "CCCC[C@@H](NC(=O)[C@@H]1CCCN1C(=O)CNC(=O)[C@H](CCCCN)NC(=O)[C@H](Cc1c[nH]cn1)NC(=O)[C@H](NC(=O)[C@H](CC(C)C)NC(=O)[C@H](CCCNC(=N)N)NC(=O)[C@@H]1CCCN1C(=O)[C@H](CCCNC(=N)N)NC(=O)[C@@H]1CCC(=O)N1)C(C)C)C(=O)N[C@H](C)C(=O)N[C@H](Cc1ccccc1)C(=O)O [Example 61, pE-R-P-R-L-v-H-K-G-P-nle-a-f-OH] ([pGlu]RPRL[dV]HKGP[dNle][dA][dF]-OH)",
    "result.type": "EC50",
    "measured": 7.9
  }
]

Kindly consider the entry below.
Ask | For the molecule CCCC[C@@H](NC(=O)[C@@H]1CCCN1C(=O)CNC(=O)[C@H](CCCCN)NC(=O)[C@H](Cc1c[nH]cn1)NC(=O)[C@@H](C)NC(=O)[C@H](CC(C)C)NC(=O)[C@H](CCCNC(=N)N)NC(=O)[C@@H]1CCCN1C(=O)[C@H](CCCNC(=N)N)NC(=O)[C@@H]1CCC(=O)N1)C(=O)N[C@H](C)C(=O)N[C@H](Cc1ccccc1)C(N)=O , what EC50 is on record?
Reply | 14.8

---

# half-life at 5000 ng/mL annotations
test: Plasma Stability Assay (LC-MS); type: in vitro ADME; conditions: male, Sprague-Dawley, rat
Answer with a number only, understood to be in h.

[
  {
    "compound": "CCCC[C@@H](NC(=O)[C@@H]1CCCN1C(=O)CNC(=O)[C@H](CCCCN)NC(=O)[C@H](Cc1c[nH]cn1)NC(=O)[C@@H](C)NC(=O)[C@H](CC(C)C)NC(=O)[C@H](CCCNC(=N)N)NC(=O)[C@@H]1CCCN1C(=O)[C@H](CCCNC(=N)N)NC(=O)[C@@H]1CCC(=O)N1)C(=O)N[C@H](C)C(=O)N[C@H](Cc1ccccc1)C(=O)O [Example 29, pE-R-P-R-L-a-H-K-G-P-nle-a-f-OH]",
    "measurement.unit": "h",
    "half-life at 5000 ng/mL": 2.6
  }
]

Kindly consider the entry below.
Ask | For the compound CCCC[C@@H](NC(=O)[C@@H]1CCCN1C(=O)CNC(=O)[C@H](CCCCN)NC(=O)[C@@H](Cc1c[nH]cn1)NC(=O)[C@@H](C)NC(=O)[C@H](CC(C)C)NC(=O)[C@H](CCCNC(=N)N)NC(=O)[C@@H]1CCCN1C(=O)[C@H](CCCNC(=N)N)NC(=O)[C@@H]1CCC(=O)N1)C(=O)N[C@H](C)C(=O)N[C@H](Cc1ccccc1)C(=O)O [Example 16, pE-R-P-R-L-a-h-K-G-P-nle-a-f-OH] , what half-life at 5000 ng/mL is on record?
Reply | 7.47

---

molecular target: hAPJ (Homo sapiens, UniProt P35414); experiment: hAPJ Calcium Flux Assay; assay type: cell-based; details: Chem-5 APJ stable cells, FLIPR calcium flux stimulation; read-out: hAPJ Ca^2+ Flux EC50
Where a SMILES comes first, the peptide text is derived from it. [ ]: non-standard residue; d: D form. pGlu = O=C1CC[C@@H](C(=O)O)N1; dNle = CCCC[C@@H](N)C(=O)O
result.type: EC50 (nM)
Answer with a number only, understood to be in nM.

Ask | For the compound CCCC[C@@H](NC(=O)[C@@H]1CCCN1C(=O)[C@H](CC(=O)O)NC(=O)[C@H](CCCCN)NC(=O)[C@H](Cc1c[nH]cn1)NC(=O)[C@@H](C)NC(=O)[C@H](CC(C)C)NC(=O)[C@H](CCCNC(=N)N)NC(=O)[C@@H]1CCCN1C(=O)[C@H](CCCNC(=N)N)NC(=O)[C@@H]1CCC(=O)N1)C(=O)N[C@H](C)C(=O)N[C@H](Cc1ccccc1)C(=O)O [Example 62, pE-R-P-R-L-a-H-K-D-P-nle-a-f-OH] ([pGlu]RPRL[dA]HKDP[dNle][dA][dF]-OH) , what EC50 is on record?
Reply | 95.9

---

test: Surrogate Activity-Based Plasma Stability Assay; format: in vitro ADME; conditions: rat, Surrogate activity-based Plasma stability t½
Where a SMILES comes first, the peptide text is derived from it. [ ]: non-standard residue; d: D form. Phe(3,4-Cl2) = N[C@@H](Cc1ccc(Cl)c(Cl)c1)C(=O)O; pGlu = O=C1CC[C@@H](C(=O)O)N1; dNle = CCCC[C@@H](N)C(=O)O
# half-life annotations
Answer with a number only, understood to be in h.

Check out these entries, answers already filled in.
[
  {
    "compound": "CCCC[C@H](NC(=O)[C@@H]1CCCN1C(=O)CNC(=O)[C@@H](CCCCN)NC(=O)[C@H](Cc1c[nH]cn1)NC(=O)[C@@H](C)NC(=O)[C@H](CC(C)C)NC(=O)[C@H](CCCNC(=N)N)NC(=O)[C@@H]1CCCN1C(=O)[C@H](CCCNC(=N)N)NC(=O)[C@@H]1CCC(=O)N1)C(=O)N[C@H](C)C(=O)N[C@H](Cc1ccccc1)C(=O)O [Example 31, pE-R-P-R-L-a-H-k-G-P-Nle-a-f-OH]",
    "result.type": "half-life",
    "measurement.unit": "h",
    "measured": 5.78
  },
  {
    "compound": "CCCC[C@@H](NC(=O)[C@@H]1CCCN1C(=O)[C@H](CC(=O)O)NC(=O)[C@H](CCCCN)NC(=O)[C@H](Cc1c[nH]cn1)NC(=O)[C@@H](C)NC(=O)[C@H](CC(C)C)NC(=O)[C@H](CCCNC(=N)N)NC(=O)[C@@H]1CCCN1C(=O)[C@H](CCCNC(=N)N)NC(=O)[C@@H]1CCC(=O)N1)C(=O)N[C@H](C)C(=O)N[C@H](Cc1ccccc1)C(=O)O [Example 62, pE-R-P-R-L-a-H-K-D-P-nle-a-f-OH] ([pGlu]RPRL[dA]HKDP[dNle][dA][dF]-OH)",
    "result.type": "half-life",
    "measurement.unit": "h",
    "measured": 7.9
  },
  {
    "compound": "CCCC[C@@H](NC(=O)[C@@H]1CCCN1C(=O)CNC(=O)[C@H](CCCCN)NC(=O)[C@H](Cc1c[nH]cn1)NC(=O)[C@@H](C)NC(=O)[C@H](Cc1ccc(Cl)c(Cl)c1)NC(=O)[C@H](CCCNC(=N)N)NC(=O)[C@@H]1CCCN1C(=O)[C@H](CCCNC(=N)N)NC(=O)[C@@H]1CCC(=O)N1)C(=O)N[C@H](C)C(=O)N[C@H](Cc1ccccc1)C(=O)O [Example 24] ([pGlu]RPR[Phe(3,4-Cl2)][dA]HKGP[dNle][dA][dF]-OH)",
    "result.type": "half-life",
    "measurement.unit": "h",
    "measured": 0.958
  }
]

Kindly consider the entry below.
Ask | For the compound CCCC[C@@H](NC(=O)[C@@H]1CCCN1C(=O)CNC(=O)[C@H](CCCCN)NC(=O)[C@H](Cc1c[nH]cn1)NC(=O)[C@@H](C)NC(=O)[C@H](CC(C)C)NC(=O)[C@H](CCCNC(=N)N)NC(=O)[C@@H]1CCCN1C(=O)[C@H](CCCNC(=N)N)NC(=O)[C@@H]1CCC(=O)N1)C(=O)N[C@@H](Cc1ccccc1)C(=O)O [Example 18, pE-R-P-R-L-a-H-K-G-P-nle-F-OH] ([pGlu]RPRL[dA]HKGP[dNle]F-OH) , what half-life is on record?
Reply | 2.04
